Test system: ATP;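 note: ATP exposure 15 min at 22 °C before imaging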
Assay Summary: switch fluorescence ratio, 500 uM ATP over buffer (Cy3 cluster intensity, sum of 5 cycles each) (fold (ratio)); higher = stronger signal-on switching upon ATP binding; sequences stand for … in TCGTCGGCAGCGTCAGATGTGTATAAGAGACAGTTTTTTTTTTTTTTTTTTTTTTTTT…TC
Condition Summary: aptamer strand: ATP DNA aptamer (quencher-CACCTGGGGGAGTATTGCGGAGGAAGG + anchor), 100 nM annealed; ATP concentration: 500 uM
Quantity Name: switch fluorescence ratio
The answer should be written as a number, with no unit following it.

In the examples that follow, each entry is paired with its recorded switch fluorescence ratio.
Inquiry: What measured switch fluorescence ratio is associated with TAGGGATTTT on ATP?
Reply text: 0.986

Inquiry: Next entry: TTTTTCGATT
Reply text: 0.982

Inquiry: Next entry: CGGGATTGAG
Reply text: 0.979

Further cases:
Inquiry: What measured switch fluorescence ratio is associated with AGTGCGTCTT on ATP?
Reply text: 1.01

Inquiry: Next entry: TAGGGGGGCA
Reply text: 0.991

* * *

Test system: ATP;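 note: ATP exposure 15 min at 22 °C before imaging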
Assay Summary: switch fluorescence ratio, 500 uM ATP over buffer (Cy3 cluster intensity, sum of 5 cycles each) (fold (ratio)); higher = stronger signal-on switching upon ATP binding; sequences stand for … in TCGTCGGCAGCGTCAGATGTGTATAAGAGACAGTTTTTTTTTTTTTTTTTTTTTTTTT…TC
Condition Summary: aptamer strand: ATP DNA aptamer (quencher-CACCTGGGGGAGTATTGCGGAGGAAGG + anchor), 100 nM annealed; ATP concentration: 500 uM
Listed here: items and their measured switch fluorescence ratio.

Inquiry: Could you share which switch fluorescence ratio value was measured for GGGTGTACAA ?
Reply text: 0.98

Inquiry: Next entry: TCGAGATATG
Reply text: 0.978

Inquiry: Next entry: TGTTTGGTTG
Reply text: 1.01

Inquiry: Next entry: AAACGGGTCA
Reply text: 0.983

Inquiry: Next entry: TTTTTGAATT
Reply text: 1

Inquiry: Next entry: AGGGAGGCAG
Reply text: 1

Further cases:
Inquiry: Could you share which switch fluorescence ratio value was measured for TACAATTGAA ?
Reply text: 1

Inquiry: Next entry: AAAAGCTTTA
Reply text: 0.983

Inquiry: Next entry: AGGGTAGATA
Reply text: 1

Inquiry: Next entry: AGTGGTTGAA
Reply text: 0.99

* * *

Listed here: items and their measured switch fluorescence ratio.
Test system: ATP;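 note: ATP exposure 15 min at 22 °C before imaging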
Assay Summary: switch fluorescence ratio, 500 uM ATP over buffer (Cy3 cluster intensity, sum of 5 cycles each) (fold (ratio)); higher = stronger signal-on switching upon ATP binding; sequences stand for … in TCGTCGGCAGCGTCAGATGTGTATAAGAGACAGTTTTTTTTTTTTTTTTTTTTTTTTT…TC
Condition Summary: aptamer strand: ATP DNA aptamer (quencher-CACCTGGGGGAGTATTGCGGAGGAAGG + anchor), 100 nM annealed; ATP concentration: 500 uM
The answer should be written as a number, with no unit following it.

In the examples that follow, each entry is paired with its recorded switch fluorescence ratio.
Inquiry: Could you share which switch fluorescence ratio value was measured for TCTCACATCG ?
Reply text: 1.01

Inquiry: Next entry: GGTGTCTGCG
Reply text: 1.01

Inquiry: Next entry: AAAGATTTTG
Reply text: 0.982

Inquiry: Next entry: TGATGGAGGC
Reply text: 1.01

Inquiry: Next entry: CGTGAGTTTG
Reply text: 0.989

Inquiry: Next entry: TTAAGTTGTG
Reply text: 0.983

Inquiry: Next entry: ATAGCGGGGG
Reply text: 0.998

Inquiry: Next entry: CAGTGTCTGC
Reply text: 0.973

Further cases:
Inquiry: Could you share which switch fluorescence ratio value was measured for GTGAGATGTT ?
Reply text: 1

Inquiry: Next entry: ATCGTATTGT
Reply text: 0.993

* * *

Test system: ATP;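 note: ATP exposure 15 min at 22 °C before imaging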
Assay Summary: switch fluorescence ratio, 500 uM ATP over buffer (Cy3 cluster intensity, sum of 5 cycles each) (fold (ratio)); higher = stronger signal-on switching upon ATP binding; sequences stand for … in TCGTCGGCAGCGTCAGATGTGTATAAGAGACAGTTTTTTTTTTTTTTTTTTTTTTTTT…TC
Condition Summary: aptamer strand: ATP DNA aptamer (quencher-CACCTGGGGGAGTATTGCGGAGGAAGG + anchor), 100 nM annealed; ATP concentration: 500 uM
Threshold check on switch fluorescence ratio: at or above 1 gives criterion met, strictly below gives criterion not met.

Example cases with answers are listed next.
Inquiry: Threshold query (switch fluorescence ratio >= 1) on CGGGTGTGGC
Reply text: criterion met

Inquiry: Next entry: GAATTATCAT
Reply text: criterion not met

Inquiry: Next entry: GAGCAGGTTT
Reply text: criterion met

Inquiry: Next entry: GCTATCCCTG
Reply text: criterion met

Further cases:
Inquiry: Threshold query (switch fluorescence ratio >= 1) on GGTGGGATTT
Reply text: criterion not met

Inquiry: Next entry: CGTTGCATGC
Reply text: criterion met

Inquiry: Next entry: GAGTCCAGGC
Reply text: criterion met

Inquiry: Next entry: ATGAATTCTG
Reply text: criterion met

* * *

Tested on: ATP;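 note: ATP exposure 15 min at 22 °C before imaging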
Assay Summary: switch fluorescence ratio, 500 uM ATP over buffer (Cy3 cluster intensity, sum of 5 cycles each) (fold (ratio)); higher = stronger signal-on switching upon ATP binding; sequences stand for … in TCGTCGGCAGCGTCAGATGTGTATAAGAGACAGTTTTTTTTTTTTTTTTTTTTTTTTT…TC
Condition Summary: aptamer strand: ATP DNA aptamer (quencher-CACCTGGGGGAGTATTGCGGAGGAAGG + anchor), 100 nM annealed; ATP concentration: 500 uM
Quantity Name: switch fluorescence ratio
The answer should be written as a number, with no unit following it.

In the examples that follow, each entry is paired with its recorded switch fluorescence ratio.
Inquiry: Could you share which switch fluorescence ratio value was measured for GCAGTTAGCC ?
Reply text: 1.01

Inquiry: Next entry: GGGGGAATTT
Reply text: 0.993

Inquiry: Next entry: ATGCATGCGT
Reply text: 1

Inquiry: Next entry: CGGGGCGGCG
Reply text: 0.986

Inquiry: Next entry: CGGCGAAGTT
Reply text: 0.988

Further cases:
Inquiry: Could you share which switch fluorescence ratio value was measured for CGTATATGTG ?
Reply text: 0.989

Inquiry: Next entry: GGGTTAGTAG
Reply text: 1

Inquiry: Next entry: ATGGAAAAGG
Reply text: 0.992

Inquiry: Next entry: TTATTTTTAG
Reply text: 1.01

Inquiry: Next entry: TGTTCTGGGG
Reply text: 1.01

* * *

System: ATP;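 note: ATP exposure 15 min at 22 °C before imaging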
Assay Summary: switch fluorescence ratio, 500 uM ATP over buffer (Cy3 cluster intensity, sum of 5 cycles each) (fold (ratio)); higher = stronger signal-on switching upon ATP binding; sequences stand for … in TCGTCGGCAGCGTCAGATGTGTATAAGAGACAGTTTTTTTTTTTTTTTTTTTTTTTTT…TC
Condition Summary: aptamer strand: ATP DNA aptamer (quencher-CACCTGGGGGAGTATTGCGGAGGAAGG + anchor), 100 nM annealed; ATP concentration: 500 uM
Listed here: items and their measured switch fluorescence ratio.

In the examples that follow, each entry is paired with its recorded switch fluorescence ratio.
Inquiry: Could you share which switch fluorescence ratio value was measured for ATTGGGGATG ?
Reply text: 0.982

Inquiry: Next entry: TAGTTCGTTG
Reply text: 0.98

Inquiry: Next entry: GCATTATCCA
Reply text: 1.01

Inquiry: Next entry: GTTGGGAGCG
Reply text: 1

Inquiry: Next entry: GAGAAGAAGC
Reply text: 1

Inquiry: Next entry: GTTAGTCGGT
Reply text: 0.983

Inquiry: Next entry: CCAAGGTCCT
Reply text: 1.01

Inquiry: Next entry: CAAATGGGGG
Reply text: 0.985

Inquiry: Next entry: TTTGATACCC
Reply text: 0.991

Inquiry: Next entry: CGGAAGTTCG
Reply text: 0.977

Now turn to the next sequence.
Inquiry: Could you share which switch fluorescence ratio value was measured for GAAATGGCAA ?
Reply text: 1.03

* * *

Listed here: items and their measured switch fluorescence ratio.
Test system: ATP;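 note: ATP exposure 15 min at 22 °C before imaging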
Assay Summary: switch fluorescence ratio, 500 uM ATP over buffer (Cy3 cluster intensity, sum of 5 cycles each) (fold (ratio)); higher = stronger signal-on switching upon ATP binding; sequences stand for … in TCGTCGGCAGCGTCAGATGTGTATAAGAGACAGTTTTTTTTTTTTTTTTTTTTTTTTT…TC
Condition Summary: aptamer strand: ATP DNA aptamer (quencher-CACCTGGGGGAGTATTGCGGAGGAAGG + anchor), 100 nM annealed; ATP concentration: 500 uM
The answer should be written as a number, with no unit following it.

In the examples that follow, each entry is paired with its recorded switch fluorescence ratio.
Inquiry: Could you share which switch fluorescence ratio value was measured for TGGTTATGGT ?
Reply text: 0.992

Inquiry: Next entry: GCCTTGGGGG
Reply text: 1

Inquiry: Next entry: GTGAAGACGT
Reply text: 1

Now turn to the next sequence.
Inquiry: Could you share which switch fluorescence ratio value was measured for TCGGGAGATT ?
Reply text: 1.02

Data origin, for the record: the supplement of paper PMC10126150
